Experiment: basal HepG2 mitochondrial membrane potential changes, profiling panel, cell-based, JC-1 fluorescence, 24 h, 100 nL compound (AID 1167); note: test concentration not given here
Details: higher = more signal
MEASURED_METRIC: z-score
Answer with the value's number alone.

1) O=C1OCCC/C=C\[C@H]2OC34C=CCN(Cc5ccccc5)C(=O)[C@H]3N(CCCO)C(=O)[C@@H]4C12 (stereo partly drawn) ... 0.315
2) Cc1nc2cc(Br)ccc2c(=O)o1 ... 1.37

[ask] Query (compound): C=CCNC(=O)[C@@H]1[C@H]2C(=O)O[C@H](c3ccccc3)[C@H](c3ccccc3)N2[C@H](c2ccc(O)cc2)[C@@]12C(=O)N(C(=O)OCCOC)c1ccc(C#CCNC(N)=O)cc12 ; field requested: z-score
[reply] -0.194

[ask] Query (compound): O=C1C[C@@](C(=O)NCCN2CCOCC2)(c2ccc([N+](=O)[O-])cc2)[C@@H](c2ccc(CO)cc2)N1CC12CC3CC(CC(C3)C1)C2 ; field requested: z-score
[reply] -2.04

[ask] Query (compound): C[C@H]1NC(=O)[C@@]23C(=O)N[C@@H](Cc4ccccc4)C2[C@H](C)[C@@]2(C)O[C@H]2C3/C=C/C/C=C\CNC(=O)[C@@H]2CCCN2C1=O (stereo partly drawn) ; field requested: z-score
[reply] -0.0133
